# SYSTEM_TESTED: HLA-A*02:06
# ASSAY_PROCEDURE: IEDB peptide-MHC binding, purified MHC/competitive/radioactivity; bounds were set here for any values at or beyond the usual limits of such assays
# PROTOCOL_CONDITIONS: source organism: Mammarenavirus machupoense
READOUT_KIND: IC50 (nM)
The response must be a number in nM with no trailing unit.

Ask | Which measured IC50 belongs to GLSQFTHTV , tested on HLA-A*02:06?
Reply | 332

Ask | Continue with LNKSDSSWAV
Reply | 2190

Ask | Continue with LLDCIMYQS
Reply | 3280

Ask | Continue with KSFFWFNEV
Reply | 3.2

Ask | Continue with AMPGVLSYV
Reply | 22

Ask | Continue with ALNIALVAV
Reply | 371
